Assay: Assay C: Hepatocyte clearance
Format: in vitro ADME
Conditions: human hepatocyte suspension, 1 μM test compound, six hours
Provide the reported human Hepatocytes [% Qh] of each item.
Number only, in % Qh; omit the unit.

input: Dear colleague, I am looking for the recorded human Hepatocytes [% Qh] of the following compound: CNC(=O)c1sc2ncn(Cc3nc(C[C@H](O)c4ccc(Cl)cc4)no3)c(=O)c2c1C
output: 29

input: # repeat for Cc1c(C(N)=O)sc2ncn(Cc3nc(C[C@H](O)c4ccc(F)c(F)c4)no3)c(=O)c12
output: 37

input: Also, O=C1NCCc2c1sc1ncn(Cc3nc(C[C@H](O)c4ccc(Cl)cc4)no3)c(=O)c21 please.
output: 31

input: Try the compound Cc1c(C(=O)NCC(F)F)sc2ncn(Cc3nc(C[C@H](O)c4ccc(Cl)cc4)no3)c(=O)c12
output: 36

====

Molecular target: human TRPA1 ion channel (Homo sapiens (Human))
Assay: Assay A: TRPA1 cell assay (FLIPR, AITC-induced intracellular calcium)
Settings: HEK293 cells over-expressing human TRPA1; agonist AITC 10 μM; FLIPRtetra; read-out: hTRPA1 IC50
Parameter Measured: IC50 (nM)
Quick note: give the figure in nM, leave out the unit.

input: Can you look up the measured IC50 of Cc1c(C(=O)NCC(F)F)sc2ncn(Cc3nc(C[C@H](O)c4ccc(Cl)cc4)no3)c(=O)c12 [Example 12] for me?
output: 15

input: What about Cc1c(C(=O)NCC(C)(C)O)sc2ncn(Cc3nc(C[C@H](O)c4ccc(Cl)cc4)no3)c(=O)c12 [Example 13] ?
output: 37

input: Moving on to the next molecule: Cc1c(C(N)=O)sc2ncn(Cc3nc(C[C@H](O)c4cc(F)cc(F)c4)no3)c(=O)c12 [Example 6]
output: 48

====

Would you kindly list pIC50 for each of these compounds?
Target: human TRPA1 ion channel (Homo sapiens (Human), UniProt O75762)
Sequence (O75762 whole entry): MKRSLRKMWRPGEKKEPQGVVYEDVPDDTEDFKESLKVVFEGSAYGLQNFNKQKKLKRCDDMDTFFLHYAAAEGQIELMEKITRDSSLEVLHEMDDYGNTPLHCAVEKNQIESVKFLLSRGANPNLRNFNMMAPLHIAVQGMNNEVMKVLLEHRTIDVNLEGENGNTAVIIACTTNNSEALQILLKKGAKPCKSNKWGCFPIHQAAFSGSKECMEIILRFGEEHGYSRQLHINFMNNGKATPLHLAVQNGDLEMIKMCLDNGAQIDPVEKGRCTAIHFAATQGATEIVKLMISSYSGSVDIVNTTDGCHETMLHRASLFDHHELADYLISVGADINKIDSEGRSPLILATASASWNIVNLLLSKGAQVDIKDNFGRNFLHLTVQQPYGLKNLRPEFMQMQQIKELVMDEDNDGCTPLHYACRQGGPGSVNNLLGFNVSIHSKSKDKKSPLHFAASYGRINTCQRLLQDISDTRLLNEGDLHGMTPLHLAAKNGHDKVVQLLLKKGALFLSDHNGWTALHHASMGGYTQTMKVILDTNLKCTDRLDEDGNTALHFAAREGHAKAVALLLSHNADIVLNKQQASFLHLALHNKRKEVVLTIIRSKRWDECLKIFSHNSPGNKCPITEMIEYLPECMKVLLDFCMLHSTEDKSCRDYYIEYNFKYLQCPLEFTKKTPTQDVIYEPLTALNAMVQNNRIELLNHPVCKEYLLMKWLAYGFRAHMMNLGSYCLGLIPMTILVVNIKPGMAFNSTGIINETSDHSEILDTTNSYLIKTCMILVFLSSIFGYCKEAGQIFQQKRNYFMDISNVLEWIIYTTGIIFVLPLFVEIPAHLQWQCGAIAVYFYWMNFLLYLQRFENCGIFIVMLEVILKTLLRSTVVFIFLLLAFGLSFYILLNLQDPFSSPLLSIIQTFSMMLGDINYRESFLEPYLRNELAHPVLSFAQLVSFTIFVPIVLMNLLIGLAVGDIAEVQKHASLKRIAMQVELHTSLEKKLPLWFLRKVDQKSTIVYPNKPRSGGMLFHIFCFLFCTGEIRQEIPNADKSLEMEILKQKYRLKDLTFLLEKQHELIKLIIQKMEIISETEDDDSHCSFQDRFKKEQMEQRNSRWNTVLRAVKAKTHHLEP
Experiment: Assay A: TRPA1 cell assay (FLIPR, AITC-induced intracellular calcium)
Details: HEK293 cells over-expressing human TRPA1; agonist AITC 10 μM; FLIPRtetra; read-out: hTRPA1 IC50
For clarity, pIC50 is expressed as the negative log10 of concentration in mol/L.

input: pIC50 of Cc1c(C(N)=O)sc2ncn(Cc3nc(C[C@H](O)c4ccc5c(c4)OC(F)(F)O5)no3)c(=O)c12 on human TRPA1 ion channel (Homo sapiens (Human), UniProt O75762)?
output: 7.47

input: Similarly, CNC(=O)c1sc2ncn(Cc3nc(C[C@H](O)c4ccc5c(c4)OCO5)no3)c(=O)c2c1C ?
output: 7.11

input: NC(=O)c1sc2ncn(Cc3nc(C[C@H](O)c4ccc(Cl)cc4)no3)c(=O)c2c1Cl ?
output: 7.80

input: Query Cc1c(C(N)=O)sc2ncn(Cc3nc(C[C@H](O)c4cc5ccccc5o4)no3)c(=O)c12 next
output: 7.72

input: And the next one, Cc1c(C(N)=O)sc2ncn(Cc3nc(C[C@H](O)c4ccc(Cl)cc4)no3)c(=O)c12 ?
output: 7.89

input: Could you do the same for Cc1c(C(N)=O)sc2ncn(Cc3nc(C[C@H](O)c4ccc5c(c4)OCO5)no3)c(=O)c12 , please?
output: 7.25

input: Do the same for CNC(=O)c1sc2ncn(Cc3nc(C[C@H](O)c4ccc(F)c(F)c4)no3)c(=O)c2c1C please
output: 7.48

input: Let us now turn to Cc1ccc([C@@H](O)Cc2noc(Cn3cnc4sc(C(N)=O)c(C)c4c3=O)n2)cc1
output: 7.70

====

Target: human TRPA1 ion channel (Homo sapiens (Human), UniProt O75762)
Assay: Assay A: TRPA1 cell assay (FLIPR, AITC-induced intracellular calcium)
Conditions: HEK293 cells over-expressing human TRPA1; agonist AITC 10 μM; FLIPRtetra; read-out: hTRPA1 IC50
Procedure: A human HEK293 cell line over-expressing the human TRPA1 ion channel (Perkin Elmer, Product No. AX-004-PCL) was used as a test system for compound efficacy and potency. Compound activity was determined by measuring the effect of compounds on intracellular calcium concentration induced by AITC (Allylisothiocyanat) agonism in a FLIPRtetra system (Molecular Devices). The cells were obtained as frozen cells in cryo-vials and stored until use at −150° C. […]
Parameter Measured: IC50 (nM)
Give just the numeric value; nM need not be written.

input: Please report the recorded IC50 for Cc1c(C(N)=O)sc2ncn(Cc3nc(C[C@H](O)c4ccc(F)cc4)no3)c(=O)c12 [Example 4] .
output: 33

input: Also need CNC(=O)c1sc2ncn(Cc3nc(C[C@H](O)c4ccc(Cl)cc4)no3)c(=O)c2c1C [Example 11] , thanks.
output: 10

input: Proceed to Cc1c(C(N)=O)sc2ncn(Cc3nc(C[C@H](O)c4ccc(F)c(F)c4)no3)c(=O)c12 [Example 5]
output: 48

input: Also O=C1NCCc2c1sc1ncn(Cc3nc(C[C@H](O)c4ccc(Cl)cc4)no3)c(=O)c21 [Example 15] ?
output: 9

====

Experiment: Assay C: Hepatocyte clearance
Assay type: in vitro ADME
Conditions: human hepatocyte suspension, 1 μM test compound, six hours
Answer not fulfilled if human Hepatocytes [% Qh] is under 30 % Qh, and fulfilled if it is 30 % Qh or more.

input: Given Cc1c(C(N)=O)sc2ncn(Cc3nc(C[C@H](O)c4ccc5c(c4)OC(F)(F)O5)no3)c(=O)c12 [Example 7] , state whether its human Hepatocytes [% Qh] is at least 30 % Qh.
output: fulfilled

input: Cool, now CNC(=O)c1sc2ncn(Cc3nc(C[C@H](O)c4ccc(F)c(F)c4)no3)c(=O)c2c1C [Example 14]
output: not fulfilled

input: Input Cc1c(C(N)=O)sc2ncn(Cc3nc(C[C@H](O)c4cc(F)cc(F)c4)no3)c(=O)c12 [Example 6]
output: not fulfilled

input: Repeat with Cc1c(C(N)=O)sc2ncn(Cc3nc(C[C@H](O)c4cc5ccccc5o4)no3)c(=O)c12 [Example 3]
output: fulfilled

input: Now the same for Cc1c(C(N)=O)sc2ncn(Cc3nc(C[C@H](O)c4ccc5c(c4)OCO5)no3)c(=O)c12 [Example 8]
output: not fulfilled

input: Continue with CNC(=O)c1sc2ncn(Cc3nc(C[C@H](O)c4ccc5c(c4)OCO5)no3)c(=O)c2c1C [Example 9]
output: not fulfilled

input: Let us now turn to Cc1c(C(N)=O)sc2ncn(Cc3nc(C[C@H](O)c4ccc(Cl)cc4)no3)c(=O)c12 [Example 1]
output: not fulfilled

input: Next compound: Cc1c(C(N)=O)sc2ncn(Cc3nc(C[C@H](O)c4ccc(F)cc4)no3)c(=O)c12 [Example 4]
output: not fulfilled

input: Entry to check: CNC(=O)c1sc2ncn(Cc3nc(C[C@H](O)c4ccc(F)cc4)no3)c(=O)c2c1C [Example 10]
output: not fulfilled

input: Record: NC(=O)c1sc2ncn(Cc3nc(C[C@H](O)c4ccc(Cl)cc4)no3)c(=O)c2c1Cl [Example 16]
output: fulfilled

input: Param item: Cc1ccc([C@@H](O)Cc2noc(Cn3cnc4sc(C(N)=O)c(C)c4c3=O)n2)cc1 [Example 2]
output: not fulfilled

input: Another compound: Cc1c(C(=O)NCC(C)(C)O)sc2ncn(Cc3nc(C[C@H](O)c4ccc(Cl)cc4)no3)c(=O)c12 [Example 13]
output: not fulfilled

====

Experiment: Assay B: Microsomal clearance
Assay type: in vitro ADME
Conditions: pooled human liver microsomes, 1 mg/ml protein, 1 μM test compound, 37° C.
Parameter Measured: human LM [% Qh]

input: Please report the recorded human LM [% Qh] for Cc1c(C(N)=O)sc2ncn(Cc3nc(C[C@H](O)c4ccc(Cl)cc4)no3)c(=O)c12 [Example 1] .
output: 29 % Qh

input: Would you mind doing CNC(=O)c1sc2ncn(Cc3nc(C[C@H](O)c4ccc(F)c(F)c4)no3)c(=O)c2c1C [Example 14] as well?
output: <23 % Qh

input: Okay, and CNC(=O)c1sc2ncn(Cc3nc(C[C@H](O)c4ccc5c(c4)OCO5)no3)c(=O)c2c1C [Example 9] ?
output: 29 % Qh

input: Proceed to Cc1c(C(=O)NCC(F)F)sc2ncn(Cc3nc(C[C@H](O)c4ccc(Cl)cc4)no3)c(=O)c12 [Example 12]
output: 24 % Qh

input: Moving on to Cc1c(C(N)=O)sc2ncn(Cc3nc(C[C@H](O)c4ccc5c(c4)OC(F)(F)O5)no3)c(=O)c12 [Example 7]
output: 23 % Qh

input: Same question, Cc1c(C(N)=O)sc2ncn(Cc3nc(C[C@H](O)c4cc5ccccc5o4)no3)c(=O)c12 [Example 3] this time
output: <23 % Qh

input: What about CNC(=O)c1sc2ncn(Cc3nc(C[C@H](O)c4ccc(Cl)cc4)no3)c(=O)c2c1C [Example 11] ?
output: <23 % Qh

input: Entry Cc1c(C(N)=O)sc2ncn(Cc3nc(C[C@H](O)c4ccc(F)c(F)c4)no3)c(=O)c12 [Example 5] please
output: <23 % Qh

input: Request: Cc1c(C(N)=O)sc2ncn(Cc3nc(C[C@H](O)c4cc(F)cc(F)c4)no3)c(=O)c12 [Example 6]
output: <23 % Qh

input: Now the compound NC(=O)c1sc2ncn(Cc3nc(C[C@H](O)c4ccc(Cl)cc4)no3)c(=O)c2c1Cl [Example 16]
output: <23 % Qh

input: Same question for Cc1c(C(=O)NCC(C)(C)O)sc2ncn(Cc3nc(C[C@H](O)c4ccc(Cl)cc4)no3)c(=O)c12 [Example 13] please.
output: <23 % Qh

input: Now give it for Cc1ccc([C@@H](O)Cc2noc(Cn3cnc4sc(C(N)=O)c(C)c4c3=O)n2)cc1 [Example 2] too.
output: <23 % Qh

input: Try the compound Cc1c(C(N)=O)sc2ncn(Cc3nc(C[C@H](O)c4ccc5c(c4)OCO5)no3)c(=O)c12 [Example 8]
output: <23 % Qh

input: Now the compound CNC(=O)c1sc2ncn(Cc3nc(C[C@H](O)c4ccc(F)cc4)no3)c(=O)c2c1C [Example 10]
output: <23 % Qh

input: Query Cc1c(C(N)=O)sc2ncn(Cc3nc(C[C@H](O)c4ccc(F)cc4)no3)c(=O)c12 [Example 4] next
output: <23 % Qh

input: Ok, now O=C1NCCc2c1sc1ncn(Cc3nc(C[C@H](O)c4ccc(Cl)cc4)no3)c(=O)c21 [Example 15]
output: <23 % Qh
